- assayed system: human muscarinic M1 receptor (Homo sapiens, UniProt P11229)
- Construct: expressed in transfected cells
- protocol summary: Alphascreen Surefire phospho-ERK1/2 functional assay, M1
- Format: cell-based
- conditions: CHO cells stably expressing human M1; phospho-ERK1/2; read-out: pEC50 M1 (converted)
readout: EC50 (nM)

compound="CCOC(=O)N1CCC2(CC(N3CCC4(CC3)OC(=O)N(CC(C)C)C4(C)C)C2)C1 (single isomer, unassigned) [4-38 Isomer 1]" readout_value=1000
compound="CCOC(=O)N1CC2(CCC(N3CCC4(CC3)CNC(=O)C4)C2)C1 (racemic) [7-1 racemic]" readout_value=5.01
compound="CCC1NC(=O)CC12CCN(C1CC3(CCN(C(=O)OC)C3)C1)CC2 (single isomer, unassigned) [3-4 Isomer 2]" readout_value=2000
compound="COC(=O)N1CCC2(CC(N3CCC4(CC3)CNC(=O)C4)C2)C1 (single isomer, unassigned) [3-1 Isomer 2]" readout_value=79.4

---

- assayed system: human muscarinic M1 receptor (Homo sapiens, UniProt P11229)
- Construct: expressed in transfected cells
- Sequence (P11229 1-460): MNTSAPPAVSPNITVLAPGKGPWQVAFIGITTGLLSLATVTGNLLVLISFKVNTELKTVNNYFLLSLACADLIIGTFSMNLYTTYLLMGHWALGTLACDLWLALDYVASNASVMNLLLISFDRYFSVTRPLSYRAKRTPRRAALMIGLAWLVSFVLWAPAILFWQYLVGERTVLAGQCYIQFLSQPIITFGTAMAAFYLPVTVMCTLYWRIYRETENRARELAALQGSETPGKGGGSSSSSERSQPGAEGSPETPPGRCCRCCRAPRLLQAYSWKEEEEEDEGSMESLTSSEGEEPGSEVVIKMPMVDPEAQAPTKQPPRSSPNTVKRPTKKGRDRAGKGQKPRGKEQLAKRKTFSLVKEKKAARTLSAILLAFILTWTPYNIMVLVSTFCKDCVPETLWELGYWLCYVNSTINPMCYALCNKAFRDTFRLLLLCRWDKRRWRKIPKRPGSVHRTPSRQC
- protocol summary: Alphascreen Surefire phospho-ERK1/2 functional assay, M1
- Assay type: cell-based
- conditions: CHO cells stably expressing human M1; phospho-ERK1/2; read-out: pEC50 M1 (converted)
readout: EC50 (µM)

compound="CCOC(=O)N1CCC2(CC(N3CCC4(CC3)OC(=O)N3CCCC34)C2)C1 (single isomer, unassigned) [4-44 Isomer 4]" assayed_system="human muscarinic M1 receptor (Homo sapiens, UniProt P11229)" readout=EC50 readout_value=1.26
compound="CCOC(=O)N1CCC2(CC(N3CCC4(CC3)CNC(=O)C4)C2)C1 (single isomer, unassigned) [3-2 Isomer 2]" assayed_system="human muscarinic M1 receptor (Homo sapiens, UniProt P11229)" readout=EC50 readout_value=0.0158
compound="CCOC(=O)N1CCC2(CC(N3CCC4(CC3)CNC(=O)O4)C2)C1 (single isomer, unassigned) [4-3 Isomer 2]" assayed_system="human muscarinic M1 receptor (Homo sapiens, UniProt P11229)" readout=EC50 readout_value=0.02
compound=CCOC(=O)N1CC2(CC(N3CCC4(CC3)CNC(=O)C4)C2)C1 assayed_system="human muscarinic M1 receptor (Homo sapiens, UniProt P11229)" readout=EC50 readout_value=0.316

---

- assayed system: human muscarinic M1 receptor (Homo sapiens)
- Construct: expressed in transfected cells
- Sequence (P11229 1-460): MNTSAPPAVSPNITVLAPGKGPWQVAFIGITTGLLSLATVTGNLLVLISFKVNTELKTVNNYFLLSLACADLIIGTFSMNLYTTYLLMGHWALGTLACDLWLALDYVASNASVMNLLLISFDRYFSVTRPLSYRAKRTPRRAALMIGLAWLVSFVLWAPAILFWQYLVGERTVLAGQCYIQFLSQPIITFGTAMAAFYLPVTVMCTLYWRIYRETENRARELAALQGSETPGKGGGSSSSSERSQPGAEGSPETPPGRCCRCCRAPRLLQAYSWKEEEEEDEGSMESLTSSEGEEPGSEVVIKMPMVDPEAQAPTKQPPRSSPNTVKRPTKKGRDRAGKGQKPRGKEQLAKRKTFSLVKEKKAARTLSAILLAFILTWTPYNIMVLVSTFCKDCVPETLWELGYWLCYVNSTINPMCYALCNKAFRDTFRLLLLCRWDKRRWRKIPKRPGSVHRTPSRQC
- protocol summary: Alphascreen Surefire phospho-ERK1/2 functional assay, M1
- Assay type: cell-based
- conditions: CHO cells stably expressing human M1; phospho-ERK1/2; read-out: pEC50 M1 (converted)
Labelling field: enter y if recorded EC50 is less than 300 nM. Enter n if it equals or exceeds that cut-off.

compound="CCOC(=O)N1CCC2(CC(N3CCC4(CNC(=O)C4)C(F)C3)C2)C1 (single isomer, unassigned) [3-9 Isomer 2]" assayed_system="human muscarinic M1 receptor (Homo sapiens)" class_name=n
compound="CCOC(=O)N1CCC2(CC(N3CCC4(CC3)OC(=O)NC4CC)C2)C1 (single isomer, unassigned) [4-12 Isomer 1]" assayed_system="human muscarinic M1 receptor (Homo sapiens)" class_name=n
compound="CCN1NC(=O)CC12CCN(C1CC3(CCN(C(=O)OC)C3)C1)CC2 (single isomer, unassigned) [6-1 Isomer 2]" assayed_system="human muscarinic M1 receptor (Homo sapiens)" class_name=n
compound="CCOC(=O)N1CCC2(CC(N3CCC4(CC3)OC(=O)NC4C)C2)C1 (single isomer, unassigned) [4-11 Isomer 2]" assayed_system="human muscarinic M1 receptor (Homo sapiens)" class_name=y
compound="CCOC(=O)N1CCC2(CC(N3CCC4(CC3)CNC(=O)N4)C2)C1 (single isomer, unassigned) [5-2 Isomer 2]" assayed_system="human muscarinic M1 receptor (Homo sapiens)" class_name=y
compound="CCOC(=O)N1CCC2(CC(N3CCC4(CC3)OC(=O)N(CC)C4CC)C2)C1 (single isomer, unassigned) [4-22 Isomer 3]" assayed_system="human muscarinic M1 receptor (Homo sapiens)" class_name=y
compound="CCOC(=O)N1CCC2(CC(N3CCC4(CC3)OC(=O)NC43CCCC3)C2)C1 (single isomer, unassigned) [4-31 Isomer 2]" assayed_system="human muscarinic M1 receptor (Homo sapiens)" class_name=n
compound="CCOC(=O)N1CCC2(CC(N3CCC4(CC3)OC(=O)NC4CC(F)(F)F)C2)C1 (single isomer, unassigned) [4-17 Isomer 1 (racemic)]" assayed_system="human muscarinic M1 receptor (Homo sapiens)" class_name=y
compound="CCOC(=O)N1CCC2(CC(N3CCC4(CC3)OC(=O)N(OC)C4CC)C2)C1 (mixture of isomers) [4-48 mixture of diastereomers]" assayed_system="human muscarinic M1 receptor (Homo sapiens)" class_name=n
compound="CCOC(=O)N1CCC2(CC(N3CCC4(CC3)OC(=O)N(CC(F)(F)F)C4(C)C)C2)C1 (single isomer, unassigned) [4-43 Isomer 2]" assayed_system="human muscarinic M1 receptor (Homo sapiens)" class_name=n
compound="CCOC(=O)N1CCC2(CC(N3CCC4(CC3)OC(=O)NC4(C)C)C2)C1 (single isomer, unassigned) [4-27 Isomer 1]" assayed_system="human muscarinic M1 receptor (Homo sapiens)" class_name=n
compound="CCOC(=O)N1CC2(CC(N3CCC4(CC3)OC(=O)N3CCCC34)C2)C1 (centres unmarked)" assayed_system="human muscarinic M1 receptor (Homo sapiens)" class_name=n
compound="CCCN1NC(=O)CC12CCN(C1CC3(CCN(C(=O)OCC)C3)C1)CC2 (single isomer, unassigned) [6-4 Isomer 2]" assayed_system="human muscarinic M1 receptor (Homo sapiens)" class_name=y
compound="CCOC(=O)N1CCC2(CC(N3CCC4(CC3)CN(C(C)C)C(=O)O4)C2)C1 (single isomer, unassigned) [4-8 Isomer 2]" assayed_system="human muscarinic M1 receptor (Homo sapiens)" class_name=n
compound="COC(=O)N1CCC2(CC(N3CCC4(CC3)OC(=O)N3CCCC34)C2)C1 (single isomer, unassigned) [4-45 Isomer 2]" assayed_system="human muscarinic M1 receptor (Homo sapiens)" class_name=n
compound="CCOC(=O)N1CC2(CC(N3CCC4(CC3)OC(=O)NC4CC)C2)C1 (single isomer, unassigned) [2-1 Isomer 1]" assayed_system="human muscarinic M1 receptor (Homo sapiens)" class_name=y
compound="CCOC(=O)N1CCC2(CC(N3CCC4(CC3)CC(=O)N(CC)N4CC)C2)C1 (single isomer, unassigned) [6-8 Isomer 2]" assayed_system="human muscarinic M1 receptor (Homo sapiens)" class_name=n
compound="COC(=O)N1CCC2(CC(N3CCC4(CC3)CC(=O)NC4Cc3ccccc3)C2)C1 (single isomer, unassigned) [3-7 Isomer 2]" assayed_system="human muscarinic M1 receptor (Homo sapiens)" class_name=y
compound="CCOC(=O)N1CCC2(CC(N3CCC4(CC3)OC(=O)N3CCCC34)C2)C1 (single isomer, unassigned) [4-44 Isomer 3]" assayed_system="human muscarinic M1 receptor (Homo sapiens)" class_name=y
compound="CCCN1N(C)C(=O)CC12CCN(C1CC3(CCN(C(=O)OCC)C3)C1)CC2 (single isomer, unassigned) [6-10 Isomer 2]" assayed_system="human muscarinic M1 receptor (Homo sapiens)" class_name=n
compound="CCOC(=O)N1CCC2(CC(N3CCC4(CC3)CC(=O)NN4Cc3ccccc3)C2)C1 (single isomer, unassigned) [6-6 Isomer 2]" assayed_system="human muscarinic M1 receptor (Homo sapiens)" class_name=y
compound="CCOC(=O)N1CC2(CCC(N3CCC4(CC3)OC(=O)N(CC)C4CC)C2)C1 (mixture of isomers) [8-2 mixture of diastereomers]" assayed_system="human muscarinic M1 receptor (Homo sapiens)" class_name=y
compound=CCOC(=O)N1CC2(CC(N3CCC4(CC3)OC(=O)NC4(C)C)C2)C1 assayed_system="human muscarinic M1 receptor (Homo sapiens)" class_name=n
compound="CCOC(=O)N1CCC2(CC(N3CCC4(CC3)OC(=O)N(CC)C4CC)C2)C1 (single isomer, unassigned) [4-22 Isomer 2]" assayed_system="human muscarinic M1 receptor (Homo sapiens)" class_name=n
compound="CCC1NC(=O)CC12CCN(C1CC3(CCN(C(=O)OC)C3)C1)CC2 (single isomer, unassigned) [3-4 Isomer 1]" assayed_system="human muscarinic M1 receptor (Homo sapiens)" class_name=n
compound="CC(C)OC(=O)N1CCC2(CC(N3CCC4(CC3)CNC(=O)O4)C2)C1 (single isomer, unassigned) [4-4 Isomer 2]" assayed_system="human muscarinic M1 receptor (Homo sapiens)" class_name=n
